- Test Description: Biodistribution of 99mTc(N)(X)(DTC)+ heterocomplexes in rats
- Type: in vivo, male Spraque-Dawley rats (SD rats)
- Setup Conditions: 2 hr after injection
Measured Attribute: Heart % dose/g (% dose/g)

Molecule | Measured Attribute | Unit Descriptor | Reported
COCCN1CC[P+](c2ccccc2)(c2ccccc2)[99Tc-2]2(#[N])([NH]N(C)C(SC)=[S+]2)[P+](c2ccccc2)(c2ccccc2)CC1 [^99mTc(N)(PNP2)(DTC)^+] | Heart % dose/g | % dose/g | 0.511

A: COCCC[P]1(CCCOC)CCN(CCOC)CC[P](CCCOC)(CCCOC)[99Tc+]12(#[N])[NH]N(C)C(SC)=[S]2 [^99mTc(N)(PNP3)(DTC)^+]
B: CCCN1CC[P+](c2ccccc2)(c2ccccc2)[99Tc-2]2(#[N])([NH]N(C)C(SC)=[S+]2)[P+](c2ccccc2)(c2ccccc2)CC1 [^99mTc(N)(PNP1)(DTC)^+]
C: CSC1=[S+][99Tc-2]2(#[N])([NH]N1C)[P+](c1ccccc1)(c1ccccc1)CCOCC[P+]2(c1ccccc1)c1ccccc1 [^99mTc(N)(POP)(DTC)^+]
Prompt: Order the records by Heart % dose/g, with each subsequent value no larger than the one before. Would you mind listing the labels in the order asked for?
Completion: A, B, C
(A: 2.721 % dose/g, B: 0.603 % dose/g, C: 0.384 % dose/g)
